Ref: patent US20100003217A1

# PROCEDURE_TEXT: Metabolite profile in rat urine
# Type: in vivo, male Sprague-Dawley rats
# EXPERIMENTAL_CONDITIONS: group 1C (IV dose) urine
OBSERVED_PROPERTY: % of total urinary excretion

# % of total urinary excretion of CC(C)(CO)C(=O)SCCOP(N)(=O)OC[C@H]1O[C@@H](n2cnc3c(=O)[nH]c(N)nc32)[C@](C)(O)[C@@H]1O (single isomer, unassigned; diastereomer 2) [Compd 3 Diastereomer 2] = 0.84%

# % of total urinary excretion of CC(C)(CO)C(=O)SCCOP(N)(=O)OC[C@H]1O[C@@H](n2cnc3c(=O)[nH]c(N)nc32)[C@](C)(O)[C@@H]1O (single isomer, unassigned; diastereomer 1) [Compd 3 Diastereomer 1] = 0.25%

# % of total urinary excretion of C[C@@]1(O)[C@H](O)[C@@H](COP(=O)(O)NCc2ccccc2)O[C@H]1n1cnc2c(=O)[nH]c(N)nc21 = 1.62%

# % of total urinary excretion of CC(C)(CO)C(=O)SCCOP(=O)(NCc1ccccc1)OC[C@H]1O[C@@H](n2cnc3c(=O)[nH]c(N)nc32)[C@](C)(O)[C@@H]1O (mixture of isomers) = 55.6%

# % of total urinary excretion of C[C@@]1(O)[C@H](O)[C@@H](CO)O[C@H]1n1cnc2c(=O)[nH]c(N)nc21 [2′-C-methyl guanosine, 9-(2-C-methyl-β-D-ribofuranosyl)guanine, reference compound] = 38.4%
